Values were extracted from patent US12552780B2.

biological target: Tyk2 (Homo sapiens); assay: Detection of enzyme activity inhibition of JAK kinases (ULight-JAK substrate, Eu-antibody), Tyk2; assay type: biochemical; details: ATP 10 μM, substrate 50 nM, 1 hour reaction at room temperature; read-out: Tyk2 half-maximum inhibitory concentration (IC50)
Sequence (P29597 whole entry): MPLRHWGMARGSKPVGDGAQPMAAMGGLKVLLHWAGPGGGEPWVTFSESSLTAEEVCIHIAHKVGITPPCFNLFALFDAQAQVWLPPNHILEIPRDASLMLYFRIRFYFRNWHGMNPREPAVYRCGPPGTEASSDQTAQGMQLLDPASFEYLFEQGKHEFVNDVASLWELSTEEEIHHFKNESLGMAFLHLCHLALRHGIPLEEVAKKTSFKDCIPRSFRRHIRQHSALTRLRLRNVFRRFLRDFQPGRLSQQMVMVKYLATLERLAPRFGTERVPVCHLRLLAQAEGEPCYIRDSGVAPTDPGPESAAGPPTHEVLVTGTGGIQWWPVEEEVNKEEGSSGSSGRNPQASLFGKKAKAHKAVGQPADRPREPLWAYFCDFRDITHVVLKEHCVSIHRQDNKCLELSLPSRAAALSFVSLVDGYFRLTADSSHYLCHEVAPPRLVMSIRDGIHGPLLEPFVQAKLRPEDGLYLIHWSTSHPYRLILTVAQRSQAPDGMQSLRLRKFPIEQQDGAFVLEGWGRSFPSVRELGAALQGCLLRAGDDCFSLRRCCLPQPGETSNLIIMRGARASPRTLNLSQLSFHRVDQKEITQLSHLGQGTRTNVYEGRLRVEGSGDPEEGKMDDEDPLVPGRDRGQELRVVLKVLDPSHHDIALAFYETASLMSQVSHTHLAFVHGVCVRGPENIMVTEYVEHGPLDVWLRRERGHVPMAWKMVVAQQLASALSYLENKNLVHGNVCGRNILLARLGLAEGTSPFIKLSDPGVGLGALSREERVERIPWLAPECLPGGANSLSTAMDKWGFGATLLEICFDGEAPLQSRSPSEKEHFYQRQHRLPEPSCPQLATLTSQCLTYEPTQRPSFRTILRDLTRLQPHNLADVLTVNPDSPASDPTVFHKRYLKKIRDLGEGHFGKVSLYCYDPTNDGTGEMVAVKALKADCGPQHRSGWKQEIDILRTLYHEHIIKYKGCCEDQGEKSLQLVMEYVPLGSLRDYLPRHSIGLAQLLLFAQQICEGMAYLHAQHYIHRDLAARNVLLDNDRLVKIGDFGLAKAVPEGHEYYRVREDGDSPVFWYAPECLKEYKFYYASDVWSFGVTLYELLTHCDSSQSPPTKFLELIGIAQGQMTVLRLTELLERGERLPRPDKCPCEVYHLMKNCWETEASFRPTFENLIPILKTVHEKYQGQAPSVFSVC
pIC50: −log10 of the molar value.
Property label: pIC50

CCNC(=O)c1ccc(Nc2nccc(-c3ccn(C4(CC#N)CN(C(=O)[C@@H]5CC5(F)F)C4)c3)n2)cc1 [TDM-180973] :: 8.15
CNC(=O)c1ncc(Nc2nccc(-c3cnn(C4(CC#N)CN(C(=O)[C@@H]5CC5(F)F)C4)c3)n2)cc1C [TDM-180985] :: 7.68
Cc1cc(Nc2nccc(-c3ccn(C4(CC#N)CN(C(=O)[C@@H]5CC5(F)F)C4)c3)n2)cnc1C(N)=O [TDM-180975] :: 8.10
CCNC(=O)c1ccc(Nc2nccc(-c3cnn(C4(CC#N)CN(C(=O)[C@@H]5CC5(F)F)C4)c3)n2)cc1C [TDM-180983] :: 7.77
CC(CO)c1ccc(Nc2nccc(-c3cnn(C4(CC#N)CN(C(=O)[C@@H]5CC5(F)F)C4)c3)n2)cn1 (stereo partly drawn) [TDM-180990] :: 6.95

a. Cc1cc(Nc2nccc(-c3cnn(C4(CC#N)CN(C(=O)[C@@H]5CC5(F)F)C4)c3)n2)cnc1C(N)=O [TDM-180986]
b. CCNC(=O)c1ccc(Nc2nccc(-c3cnn(C4(CC#N)CN(C(=O)[C@@H]5CC5(F)F)C4)c3)n2)cc1 [TDM-180982]
c. CNC(=O)c1ncc(Nc2nccc(-c3ccn(C4(CC#N)CN(C(=O)[C@@H]5CC5(F)F)C4)c3)n2)cc1C [TDM-180976]
I would appreciate it if you could sort these 3 compounds by pIC50, starting from the smallest number. Form field (ranking): labels in requested order.
a, b, c
(a: 7.25, b: 7.72, c: 8.05)

----------
biological target: JAK2 (Homo sapiens, UniProt O60674); assay: Detection of enzyme activity inhibition of JAK kinases (ULight-JAK substrate, Eu-antibody), JAK2; format: biochemical; details: JAK2 1 nM, ATP 10 μM, substrate 50 nM, 1 hour reaction at room temperature; read-out: JAK2 half-maximum inhibitory concentration (IC50)
Sequence (O60674 whole entry): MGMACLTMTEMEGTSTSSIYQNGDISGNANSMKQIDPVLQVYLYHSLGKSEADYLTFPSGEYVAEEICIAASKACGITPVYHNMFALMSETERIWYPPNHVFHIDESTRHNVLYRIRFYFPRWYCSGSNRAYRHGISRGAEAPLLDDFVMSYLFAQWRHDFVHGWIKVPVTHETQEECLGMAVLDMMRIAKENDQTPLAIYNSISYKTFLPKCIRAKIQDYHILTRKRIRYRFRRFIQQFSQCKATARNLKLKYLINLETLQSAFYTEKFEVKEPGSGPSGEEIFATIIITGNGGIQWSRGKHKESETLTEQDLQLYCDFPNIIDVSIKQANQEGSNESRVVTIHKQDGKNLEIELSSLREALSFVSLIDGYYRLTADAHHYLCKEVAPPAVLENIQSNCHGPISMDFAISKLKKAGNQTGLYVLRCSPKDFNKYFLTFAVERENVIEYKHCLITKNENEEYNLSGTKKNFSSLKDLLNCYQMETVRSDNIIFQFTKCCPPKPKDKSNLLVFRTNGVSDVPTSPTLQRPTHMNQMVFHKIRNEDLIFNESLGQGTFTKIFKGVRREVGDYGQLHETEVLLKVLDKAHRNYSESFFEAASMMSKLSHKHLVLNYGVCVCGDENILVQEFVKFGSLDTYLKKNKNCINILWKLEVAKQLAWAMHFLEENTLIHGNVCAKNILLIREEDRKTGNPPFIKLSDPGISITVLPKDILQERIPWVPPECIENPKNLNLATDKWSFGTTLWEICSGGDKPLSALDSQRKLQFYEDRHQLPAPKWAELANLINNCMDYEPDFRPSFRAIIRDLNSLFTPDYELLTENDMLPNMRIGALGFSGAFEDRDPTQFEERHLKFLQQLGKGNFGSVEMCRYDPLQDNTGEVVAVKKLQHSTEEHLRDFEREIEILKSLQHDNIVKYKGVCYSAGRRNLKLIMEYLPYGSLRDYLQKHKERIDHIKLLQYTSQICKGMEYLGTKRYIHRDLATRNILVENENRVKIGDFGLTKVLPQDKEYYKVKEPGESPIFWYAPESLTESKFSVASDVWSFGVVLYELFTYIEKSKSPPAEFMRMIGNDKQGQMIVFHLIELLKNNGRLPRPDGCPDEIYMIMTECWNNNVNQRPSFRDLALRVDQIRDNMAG
pIC50: −log10 of the molar value.
Property label: pIC50

Consider the reported pIC50 for these molecules:
CNC(=O)c1ncc(Nc2nccc(-c3cnn(C4(CC#N)CN(C(=O)[C@@H]5CC5(F)F)C4)c3)n2)cc1C [TDM-180985] :: 7.19
CCNC(=O)c1ccc(Nc2nccc(-c3cnn(C4(CC#N)CN(C(=O)[C@@H]5CC5(F)F)C4)c3)n2)cc1C [TDM-180983] :: 7.57
CCNC(=O)c1ccc(Nc2nccc(-c3ccn(C4(CC#N)CN(C(=O)[C@@H]5CC5(F)F)C4)c3)n2)cc1 [TDM-180973] :: 8.05

A. Cc1cc(Nc2nccc(-c3cnn(C4(CC#N)CN(C(=O)[C@@H]5CC5(F)F)C4)c3)n2)cnc1C(N)=O [TDM-180986]
B. CCNC(=O)c1ccc(Nc2nccc(-c3cnn(C4(CC#N)CN(C(=O)[C@@H]5CC5(F)F)C4)c3)n2)cc1 [TDM-180982]
C. Cc1cc(Nc2nccc(-c3ccn(C4(CC#N)CN(C(=O)[C@@H]5CC5(F)F)C4)c3)n2)cnc1C(N)=O [TDM-180975]
D. CNC(=O)c1ncc(Nc2nccc(-c3ccn(C4(CC#N)CN(C(=O)[C@@H]5CC5(F)F)C4)c3)n2)cc1C [TDM-180976]
Order the records by pIC50, with each subsequent value no larger than the one before. Form field (ranking): labels in requested order.
C, D, B, A

----------
biological target: JAK3 (Homo sapiens, UniProt P52333)
Sequence (P52333 whole entry): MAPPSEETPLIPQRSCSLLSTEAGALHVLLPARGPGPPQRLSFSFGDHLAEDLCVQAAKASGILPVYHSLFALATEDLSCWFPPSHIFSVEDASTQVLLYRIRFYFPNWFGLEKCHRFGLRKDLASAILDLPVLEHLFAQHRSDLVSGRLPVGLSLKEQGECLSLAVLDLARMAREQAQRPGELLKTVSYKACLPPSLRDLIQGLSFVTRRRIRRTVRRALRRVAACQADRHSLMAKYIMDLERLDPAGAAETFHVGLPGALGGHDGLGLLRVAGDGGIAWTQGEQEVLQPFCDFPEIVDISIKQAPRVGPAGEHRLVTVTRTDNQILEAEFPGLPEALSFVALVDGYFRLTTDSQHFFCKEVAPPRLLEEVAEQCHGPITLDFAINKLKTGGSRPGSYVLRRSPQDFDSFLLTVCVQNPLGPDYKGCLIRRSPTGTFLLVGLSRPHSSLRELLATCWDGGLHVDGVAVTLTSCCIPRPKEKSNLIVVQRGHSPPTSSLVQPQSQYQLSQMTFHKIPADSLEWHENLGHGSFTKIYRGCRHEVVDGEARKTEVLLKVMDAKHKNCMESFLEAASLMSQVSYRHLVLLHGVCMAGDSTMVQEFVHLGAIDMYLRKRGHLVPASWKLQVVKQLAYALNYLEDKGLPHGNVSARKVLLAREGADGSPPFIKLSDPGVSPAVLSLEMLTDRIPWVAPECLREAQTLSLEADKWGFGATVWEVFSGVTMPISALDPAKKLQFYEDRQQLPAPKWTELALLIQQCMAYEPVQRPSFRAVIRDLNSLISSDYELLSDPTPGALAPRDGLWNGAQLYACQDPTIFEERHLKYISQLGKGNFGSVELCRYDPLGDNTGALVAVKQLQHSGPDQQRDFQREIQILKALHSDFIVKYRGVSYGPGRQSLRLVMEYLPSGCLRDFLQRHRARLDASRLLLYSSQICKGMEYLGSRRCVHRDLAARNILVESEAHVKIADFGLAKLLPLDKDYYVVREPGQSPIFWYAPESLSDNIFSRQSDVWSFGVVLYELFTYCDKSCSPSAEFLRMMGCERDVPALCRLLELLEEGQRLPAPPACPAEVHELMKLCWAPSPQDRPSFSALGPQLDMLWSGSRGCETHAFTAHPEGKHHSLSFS
pIC50: −log10 of the molar value.
Property label: pIC50

Consider the reported pIC50 for these compounds:
CNC(=O)c1ncc(Nc2nccc(-c3ccn(C4(CC#N)CN(C(=O)[C@@H]5CC5(F)F)C4)c3)n2)cc1C :: 6.22
CNC(=O)c1ncc(Nc2nccc(-c3cnn(C4(CC#N)CN(C(=O)[C@@H]5CC5(F)F)C4)c3)n2)cc1C :: 5.63

P. CC(CO)c1ccc(Nc2nccc(-c3ccn(C4(CC#N)CN(C(=O)[C@@H]5CC5(F)F)C4)c3)n2)cn1 (some centres unmarked)
Q. Cc1cc(Nc2nccc(-c3cnn(C4(CC#N)CN(C(=O)[C@@H]5CC5(F)F)C4)c3)n2)cnc1C(N)=O
R. CCNC(=O)c1ccc(Nc2nccc(-c3ccn(C4(CC#N)CN(C(=O)[C@@H]5CC5(F)F)C4)c3)n2)cc1
I would appreciate it if you could sort these 3 compounds by pIC50, starting from the smallest number. Form field (ranking): labels in requested order.
Q, P, R
(Q: 5.51, P: 6.07, R: 6.35)
